- Tested on: CDK6/Cyclin D3 (Homo sapiens (Human), UniProt Q00534)
- Sequence (Q00534 whole entry): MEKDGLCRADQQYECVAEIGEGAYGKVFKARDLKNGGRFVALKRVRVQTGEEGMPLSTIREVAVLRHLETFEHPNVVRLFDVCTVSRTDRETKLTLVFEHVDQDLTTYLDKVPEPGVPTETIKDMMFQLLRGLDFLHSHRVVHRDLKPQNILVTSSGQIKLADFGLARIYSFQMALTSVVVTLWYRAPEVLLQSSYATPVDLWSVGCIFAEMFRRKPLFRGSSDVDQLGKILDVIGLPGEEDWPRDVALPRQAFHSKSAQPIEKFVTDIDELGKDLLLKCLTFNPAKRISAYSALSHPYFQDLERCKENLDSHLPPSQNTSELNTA
- Sequence (P30281 whole entry partner): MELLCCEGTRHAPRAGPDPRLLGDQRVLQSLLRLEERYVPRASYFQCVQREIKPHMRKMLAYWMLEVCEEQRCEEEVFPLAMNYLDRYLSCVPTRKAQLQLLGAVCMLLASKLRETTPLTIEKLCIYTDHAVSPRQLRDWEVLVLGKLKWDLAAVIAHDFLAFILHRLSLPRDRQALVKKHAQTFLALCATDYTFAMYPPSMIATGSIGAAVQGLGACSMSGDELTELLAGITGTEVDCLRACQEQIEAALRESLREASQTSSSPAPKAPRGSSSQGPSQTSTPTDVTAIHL
- Assay summary: CDK6/Cyclin D3 ADP-Glo Kinase Assay
- Condition notes: 100 uM ATP, read-out: CDK6/ CyclinD3 IC50
- Procedure: CDK6/Cyclin D3 ADP-Glo Kinase Assay The purpose of the CDK6/Cyclin D3 assay is to evaluate the inhibition (% inhibition and IC50 values) in the presence of small molecule inhibitors by using a Luminescent based ADP-Glo assay. CDK6/Cyclin D3 catalyzes the production of ADP from ATP. ADP-Glo assay monitors ADP producing biochemical reactions. […] Samples were incubated for 40 minutes, after which plate well luminescence was measured on a Envision microplate reader. […]
pIC50: −log10 of the molar value.
molecules and their reported pIC50

[
  {
    "Molecule": "Cc1cc2cnc(NC3CCN(S(C)(=O)=O)CC3)nc2c(N2CCC3(CCC3(F)F)C2)n1 (stereo not shown)",
    "Tested on": "CDK6/Cyclin D3 (Homo sapiens (Human), UniProt Q00534)",
    "Endpoint value": "> 6.70"
  },
  {
    "Molecule": "CCN1CC2(C1)CN(c1ccc(Nc3ncc4ccnc(N5CCC6(C5)CC6(F)F)c4n3)nc1)C2 (stereo not shown)",
    "Tested on": "CDK6/Cyclin D3 (Homo sapiens (Human), UniProt Q00534)",
    "Endpoint value": "> 6.70"
  },
  {
    "Molecule": "Cc1cc2cnc(Nc3cnn(C4CN(CC#N)C4)c3)nc2c(N2CC3(CN(C)C3)C2)n1",
    "Tested on": "CDK6/Cyclin D3 (Homo sapiens (Human), UniProt Q00534)",
    "Endpoint value": "< 5.70"
  }
]

For the next question, use this molecule.
*Q* Provide the documented pIC50 with CDK6/Cyclin D3 (Homo sapiens (Human), UniProt Q00534) as the system for CS(=O)(=O)N1CCC(Nc2ncc3cc(C4CC4)nc(C4CC5(CNCCO5)C4)c3n2)CC1 (stereo not shown)
*A* > 6.70

---

- Tested on: CDK6/Cyclin D3 (Homo sapiens (Human), UniProt Q00534)
- Assay summary: CDK6/Cyclin D3 ADP-Glo Kinase Assay
- Condition notes: 100 uM ATP, read-out: CDK6/ CyclinD3 IC50
pIC50: −log10 of the molar value.
Measured metric: pIC50

Consider the following illustrative entries.
[
  {
    "Molecule": "Cc1cc2cnc(Nc3cnn(C4CC5(C4)CN(C)C5)c3)nc2c(N2CCC3(C2)CC3(F)F)n1 (stereo not drawn) [Compound 33]",
    "Tested on": "CDK6/Cyclin D3 (Homo sapiens (Human), UniProt Q00534)",
    "Endpoint value": "> 6.70"
  },
  {
    "Molecule": "Cc1cc2cnc(Nc3ccc4c(c3)CN(C)C4)nc2c(N2CC3(C2)CN(C2CC2)C3)n1 [Compound 44]",
    "Tested on": "CDK6/Cyclin D3 (Homo sapiens (Human), UniProt Q00534)",
    "Endpoint value": "5.70 to 6.30"
  },
  {
    "Molecule": "CS(=O)(=O)N1CCC(Nc2ncc3cc(C(F)F)nc(N4CC5(CNCCC5(F)F)C4)c3n2)CC1 [Compound 65]",
    "Tested on": "CDK6/Cyclin D3 (Homo sapiens (Human), UniProt Q00534)",
    "Endpoint value": "> 6.70"
  },
  {
    "Molecule": "Cc1cc2cnc(NC3CCN(S(=O)(=O)C4CC4)CC3)nc2c(N2CC(O)(C3CC3)C2)n1 [Compound 56]",
    "Tested on": "CDK6/Cyclin D3 (Homo sapiens (Human), UniProt Q00534)",
    "Endpoint value": "> 6.70"
  },
  {
    "Molecule": "Cc1cc2cnc(NC3CCN(S(=O)(=O)CC4CCCC4)CC3)nc2c(N2CC3(CCNC3)C2)n1 [Example 51]",
    "Tested on": "CDK6/Cyclin D3 (Homo sapiens (Human), UniProt Q00534)",
    "Endpoint value": "6.30 to 6.70"
  },
  {
    "Molecule": "Cc1cc2cnc(NC3CCN(S(C)(=O)=O)CC3)nc2c(N2CCC3(C2)CC3(F)F)n1 (stereo not drawn) [Compound 41]",
    "Tested on": "CDK6/Cyclin D3 (Homo sapiens (Human), UniProt Q00534)",
    "Endpoint value": "> 6.70"
  }
]

*Q* I have this molecule here, COCCN1CC2(CC(c3nc(C4CC4)cc4cnc(NC5CCN(S(=O)(=O)CC6CCC6)CC5)nc34)C2)C1 [Compound 80] , and I need its recorded pIC50.
*A* > 6.70

*Q* I have this molecule here, COC1CC2(C1)CN(c1nc(C)cc3cnc(NC4CCN(S(=O)(=O)C5CC5)CC4)nc13)C2 [Compound 71] , and I need its recorded pIC50.
*A* > 6.70

*Q* I have this molecule here, Cc1cc2cnc(NC3CC4CC3CN4C)nc2c(N2CCC3(C2)CC3(F)F)n1 (stereo not drawn) [Compound 43] , and I need its recorded pIC50.
*A* 6.30 to 6.70

*Q* I have this molecule here, Cc1cc2cnc(Nc3ccc4c(c3)CN(S(C)(=O)=O)C4)nc2c(N2CC3(CN(C)C3)C2)n1 [Compound 27] , and I need its recorded pIC50.
*A* 5.70 to 6.30

*Q* I have this molecule here, Cc1cc2cnc(NC3CCN(S(C)(=O)=O)CC3)nc2c(N2CC3(CN(C)C[C@@H]3F)C2)n1 [Compound 103] , and I need its recorded pIC50.
*A* > 6.70

*Q* I have this molecule here, CN1C[C@@H]2[C@H](C1)[C@H]2Nc1ncc2ccnc(N3CCC4(CCN(S(C)(=O)=O)C4)C3)c2n1 (stereo partly drawn) [Compound 15] , and I need its recorded pIC50.
*A* < 5.70

*Q* I have this molecule here, O=S(=O)(C1CC1)N1CCC(Nc2ncc3cc(C(F)F)nc(N4CC5(CCNC5)C4)c3n2)CC1 [Example 46] , and I need its recorded pIC50.
*A* > 6.70

*Q* I have this molecule here, FC(F)c1cc2cnc(Nc3ccc4c(c3)CN(C3CC3)C4)nc2c(N2CC3(CCNC3)C2)n1 [Compound 50] , and I need its recorded pIC50.
*A* > 6.70

*Q* I have this molecule here, Cc1cc2cnc(NC3CCN(S(=O)(=O)CCC4(C)CC4)CC3)nc2c(N2CC(F)(F)C3(CNC3)C2)n1 [Compound 67] , and I need its recorded pIC50.
*A* 6.30 to 6.70

Sourced from patent US20240034731A1
